Attribution: ChEMBL document CHEMBL1201862

test system: NCI-H460; assay: NCI tumour cell line growth inhibition, 48 h
Active and inactive are the calls of the source. Cut-off read from the data, not from the text of the source: active = GI50 up to about 1.1 µM and inactive = higher.
Labels: active, inactive

{"molecule": "COC(=O)c1c(CC(Cc2ccc3c(c2)CCCC3)C(=O)O)ccc2c1CCCC2 (stereo unspecified)", "assigned class": "inactive"}
{"molecule": "Cc1ccccc1NC(=O)c1c(C)oc2c1C(=O)c1ccccc1C2=O", "assigned class": "inactive"}
{"molecule": "CCCc1nc(Cl)nc(Cl)c1Cl", "assigned class": "active"}
{"molecule": "C=C1c2nc3ccccc3n2C=C(c2ccc(C)cc2)N1c1ccccc1", "assigned class": "inactive"}
{"molecule": "CCCCCCCCCCCCCCNC(=O)CCC(NC(=O)c1ccc(N(C)Cc2cnc3nc(N)nc(N)c3n2)cc1)C(=O)NCCCCCCCCCCCCCC (stereo unspecified)", "assigned class": "active"}
{"molecule": "O=C(O)[C@@H]1C[C@@H](O)CN1C(=O)OCc1ccccc1", "assigned class": "inactive"}
{"molecule": "Cn1cnnc1Sc1c([N+](=O)[O-])ncn1C", "assigned class": "inactive"}
{"molecule": "CC(C)(C)OC(=O)C1/C(=C/CO)CN1C(=O)OC(C)(C)C (stereo unspecified)", "assigned class": "inactive"}
{"molecule": "CSc1ccc2c(cc1=O)C(NC(=O)c1ccccc1)CCc1cc(O)c(O)c(O)c1-2 (stereo unspecified)", "assigned class": "inactive"}
{"molecule": "NS(=O)(=O)OCCCCCCCOS(N)(=O)=O", "assigned class": "inactive"}
{"molecule": "Cc1ccc([N+](=O)[O-])cc1S(=O)(=O)Nc1ccc(C2=NN(S(=O)(=O)c3cc([N+](=O)[O-])ccc3C)C(c3ccccc3O)C2)cc1 (stereo unspecified)", "assigned class": "inactive"}
{"molecule": "Nc1nc(=O)c2cc(NCc3ccc(C(=O)NC(CCC(=O)O)C(=O)O)cc3)ccc2[nH]1 (stereo unspecified)", "assigned class": "inactive"}
{"molecule": "Cc1nc2ccccc2n1Cc1ccc(NC(=S)NC2CCCCC2)cc1", "assigned class": "inactive"}
{"molecule": "COc1ccc(/C=C2\\C(=O)NC(=O)c3ccccc32)cc1OC", "assigned class": "inactive"}
{"molecule": "N=C1SCCS1", "assigned class": "inactive"}
{"molecule": "Cc1ccc(S(=O)(=O)N/N=C2/C3CC4CCC2C4C3)cc1 (stereo unspecified)", "assigned class": "inactive"}
{"molecule": "c1cc2c3c(c1)c1cc4c(cc1c[n+]3CC2)OCO4 [ANHYDROLYCORINIUM CHLORIDE]", "assigned class": "inactive"}
{"molecule": "COc1cc(-c2cc(=O)c3cc4c(=O)cc(-c5cc(OC)c(OC)c(OC)c5)oc4cc3o2)cc(OC)c1OC", "assigned class": "inactive"}
{"molecule": "COc1ccc(/C=C/C(=O)c2sc(-n3nc(-c4ccccc4)cc3-c3ccccc3)nc2C)cc1OC", "assigned class": "inactive"}
{"molecule": "COc1cc(/C=C(\\C#N)C(=O)c2ccccc2)ccc1O", "assigned class": "inactive"}
{"molecule": "Cn1c(NN)nc(-c2ccc([N+](=O)[O-])cc2)c(C#N)c1=O", "assigned class": "inactive"}

###

tested on: PC-3; assay: NCI tumour cell line growth inhibition, 48 h
Activity calls are given as the source filed them. Cut-off read from the data, not from the text of the source: active = GI50 up to about 1.1 µM and inactive = higher.
property label: GI50

{"compound": "CNS(=O)(=O)c1ccc2c(c1)/C(=C1/Nc3ccccc3C1=O)C(=O)N2", "obs value": "> 100 µM (inactive)"}
{"compound": "Cc1ccc(N)cc1.O=S(=O)(O)/C(=C\\c1ccccc1)c1ccccc1", "obs value": "> 100 µM (inactive)"}
{"compound": "CC1=C/C(=N\\OCC(=O)O)CC(c2ccc(C(C)C)cc2)C1 (centres undefined)", "obs value": "38.5 µM (inactive)"}
{"compound": "COc1ccc(/C=C/C(=O)Oc2ccc(/C=C3\\CCCCC3=O)cc2)cc1", "obs value": "> 100 µM (inactive)"}
{"compound": "CCN(CC)/N=C\\c1c2ccccc2cc2ccccc12", "obs value": "41.1 µM (inactive)"}
{"compound": "CCc1cc2c(c3c1CCCC3=O)CC1(C2)Cc2cc(CC)c3c(c2C1)C(=O)CCC3", "obs value": "46.5 µM (inactive)"}
{"compound": "CC(C)(C)c1cc(COc2cc(COc3ccc(-c4c5c(nc6c4CCc4ccc(-c7c8ccccc8nc8ccccc78)cc4-6)-c4cc(-c6c7ccccc7nc7ccccc67)ccc4CC5)cc3)cc(OCc3cc(C(C)(C)C)cc(C(C)(C)C)c3)c2)cc(C(C)(C)C)c1", "obs value": "> 100 µM (inactive)"}
{"compound": "CC(NC(=O)OC(C)(C)C)C(=O)C(N)=O (centres undefined)", "obs value": "> 100 µM (inactive)"}
{"compound": "CC1=CC(=O)C(=CN2C(=O)/C(=C\\c3cccnc3)NC2=S)C(=O)O1", "obs value": "> 100 µM (inactive)"}
